# SYSTEM_UNDER_TEST: T1, CD40L-CD40 interaction (Homo sapiens, UniProt P29965)
# T1 sequence (P29965 113-261 limits assumed): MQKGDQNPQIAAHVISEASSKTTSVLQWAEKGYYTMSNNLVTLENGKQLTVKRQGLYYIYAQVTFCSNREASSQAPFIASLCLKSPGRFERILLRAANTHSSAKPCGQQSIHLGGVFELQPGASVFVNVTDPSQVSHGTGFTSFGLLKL
# PROTOCOL_NOTES: Chemiluminescent proximity assay (Alphascreen)
# Type: binding
# CONDITION: monomeric non-PEGylated (unmodified) base peptide; 50% reduction in control emission at 520-620 nm; read-out: EC50nmodified) CD40L/CD40-Fc/BAF617
MEASUREMENT_TYPE: EC50 (nM)
Hi! Could you send only the number? It should be in nM, unit omitted.

Identify measured EC50 associated with LAEHAVWSLKcFPDWEWYNINIFGTDDPNHFWVEcDGHGKILFPGYPEGYYENHFLHSFELED (not fully specified) peptide: LAEHAVWSLKCFPDWEWYNINIFGTDDPNHFWVECDGHGKILFPGYPEGYYENHFLHSFELED
197
